Target: T1, IL-23 receptor on the surface of HEK-Blue IL-23 cells (UniProt Q5VWK5 24-629, limits assumed)
T1 sequence (looked up): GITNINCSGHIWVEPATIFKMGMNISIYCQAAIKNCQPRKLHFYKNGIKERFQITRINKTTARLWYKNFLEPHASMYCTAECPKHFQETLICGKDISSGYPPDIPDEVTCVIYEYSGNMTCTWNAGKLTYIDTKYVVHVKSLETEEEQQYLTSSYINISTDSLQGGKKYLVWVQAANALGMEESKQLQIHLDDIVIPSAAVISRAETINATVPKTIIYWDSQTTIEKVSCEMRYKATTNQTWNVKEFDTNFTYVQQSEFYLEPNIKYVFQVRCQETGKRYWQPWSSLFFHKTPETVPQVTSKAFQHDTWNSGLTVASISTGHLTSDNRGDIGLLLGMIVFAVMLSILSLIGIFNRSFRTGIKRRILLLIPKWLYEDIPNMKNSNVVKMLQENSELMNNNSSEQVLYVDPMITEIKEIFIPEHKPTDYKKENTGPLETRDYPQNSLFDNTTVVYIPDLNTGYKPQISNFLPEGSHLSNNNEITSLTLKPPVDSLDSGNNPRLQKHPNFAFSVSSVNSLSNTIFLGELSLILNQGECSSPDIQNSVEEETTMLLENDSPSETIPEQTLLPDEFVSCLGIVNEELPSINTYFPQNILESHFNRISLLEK
Experiment: cell-based or functional assay
Starred links: 1 amine or outer side, 2 acyl side, 3 side chain; linkers in the order of their positions; H or OH if unused. Positions of bridges follow the written chain, without caps; N, C: chain ends. Non-standard residues stand in square brackets, D forms with d. No end group written: not given here. Yde = (2S)-2-amino-3-[4-[2-(dimethylamino)ethoxy]phenyl]propanoic acid, CN(C)CCOc1ccc(C[C@H](N[*:1])C(=O)[*:2])cc1; Trp(7-Me) = Cc1cccc2c(C[C@H](N)C(=O)O)c[nH]c12; αMeLys(Me2) = CN(C)CCCC[C@](C)(N)C(=O)O; 2Nal = N[C@@H](Cc1ccc2ccccc2c1)C(=O)O; AEF = NCCOc1ccc(C[C@H](N)C(=O)O)cc1; 3Pal = N[C@@H](Cc1cccnc1)C(=O)O; Dad = desamino-aspartamic acid; Nmapt = not defined here; Thp = NC1(C(=O)O)CCOCC1; Sar = CNCC(=O)O
ASSAY METRIC: pSTAT3 (nM)

[[record]]
binder = "[Nmapt]CKWQC[AEF][2Nal][Thp]ENG-NH2 (lactam N-10; disulfide 2-6; not fully specified (residue 3); printed as Nmapt(§1)-C(§3)(@2)-K[aAc](@3)-W-Q-C(@2)-Yae-Nal-Thp-E(§1)-N-G-NH2; reading uncertain; also: K3 acetylated (K[aAc]), acetyl site not given here, ε-NH2 takes the Cys2 bond) [Compound of SEQ ID NO: 16]"
result_unit = "nM"
observed_measurement = 32.1

[[record]]
binder = "[Dad]CNT[Trp(7-Me)]LC[Yde][2Nal][αMeLys(Me2)]KN[3Pal][Sar]-NH2 (lactam (positions not given here); disulfide 2-7; not fully specified (bridges); printed as Dad(§1)-C(@2)-N-T-Wim-L-C(@2)-Yde-Nal-MKdm-K(§1)-N-Pal-Sar-NH2) [Compound of SEQ ID NO: 154]"
result_unit = "nM"
observed_measurement = 0.08

